Provenance of the data: ChEMBL document CHEMBL1144878

Biological target: D(3) dopamine receptor (Homo sapiens)
Experiment: Effective concentration for Dopamine receptor D3 was determined
measured-property: EC50 (nM)
Lab book: enter the figure in nM, no units written.

Report EC50 for COc1ccccc1N1CCN(CCCCNC(=O)c2ccc(I)cc2)CC1
1.2

###

What Ki was measured for each of the following?
Lab book: enter the figure in nM, no units written.

Give the observed Ki of COc1ccccc1N1CCN(CCCCNC(=O)c2cccc3c2-c2ccccc2C3=O)CC1 for D(2) dopamine receptor (Homo sapiens, UniProt P14416).
18

Give the observed Ki of COc1ccccc1N1CCN(CCCCNC(=O)C2CC2c2ccccc2)CC1 (stereo not drawn) for D(2) dopamine receptor (Homo sapiens, UniProt P14416).
81

Give the observed Ki of COc1ccccc1N1CCN(CCCCNC(=O)CCc2ccccc2)CC1 for D(2) dopamine receptor (Homo sapiens, UniProt P14416).
48.7
